System: SNB-75
experimentNotes: NCI tumour cell line growth inhibition, 48 h
Activity calls are given as the source filed them. Cut-off read from the data, not from the text of the source: active = GI50 up to about 1.1 µM and inactive = higher.
measureName: GI50

Example entries begin here.
- molecule: "c1ccc(N/N=C2\\CC(c3ccccc3)Oc3ccccc32)cc1 (configuration not stated)"
  GI50: "22.9 µM (inactive)"
- molecule: "C(#Cc1ccccc1)SC1=C(c2ccccc2)S/C(=C(\\SC#Cc2ccccc2)c2ccccc2)S1"
  GI50: "> 100 µM (inactive)"
- molecule: "COC(=O)c1c2n(c3ccccc13)C[C@H]1OC(C)(C)O[C@@H]21"
  GI50: "> 100 µM (inactive)"
- molecule: "Nc1ncnc2c1ncn2C=C=CCO"
  GI50: "> 100 µM (inactive)"
- molecule: "CCCCCCCCCCCCC(CCCCCCCCCCCC)OP(=O)(O)O"
  GI50: "43.4 µM (inactive)"

Please fill in: GI50 reported for CNc1cccc(-c2cc(O)c3cc4c(cc3n2)OCO4)c1 = 1.8 µM (inactive)

Record summary for CCSc1n/c(=C\c2ccco2)c2nncn12 : reported GI50 = > 100 µM (inactive)

---

Test system: HL-60
experimentNotes: NCI tumour cell line growth inhibition, 48 h
Calls of active or inactive are those of the source. No stated cut-off is given here; in the data, active = GI50 up to about 1.1 µM and inactive = higher.
Parameter call: string, one of True for active, False for inactive

- compound: "CC(=O)OCCCCn1cnc2nc(Nc3ccccc3)nc(Cl)c21"
  labelValue: "False"
- compound: "CCN(CC)CCN(C(=O)c1ccc(F)cc1)c1ccccc1N"
  labelValue: "False"
- compound: "CCOC(=O)NC(=O)c1cn(C2OC(COC(=O)CCCCCCCCC(=O)OCC3OC(n4cc(C(=O)NC(=O)OCC)c(=O)[nH]c4=O)C4OC(C)(C)OC34)C3OC(C)(C)OC32)c(=O)[nH]c1=O (centres undefined)"
  labelValue: "False"
- compound: "C=C1C(=O)C2=C[C@H]1C[C@H](O)C(=O)[C@]1(C)CCCC(C)(C)[C@H]1C[C@H]2O"
  labelValue: "True"

Query: Would you mind telling me which call this test gave C=C1CC2(OC1=O)c1ccccc1C=Cc1ccccc12 ?
Result: True

Query: Record lookup: outcome of this test for CCOC(=O)c1c2ccccc2n2c(=O)n(-c3ccccc3)nnc12 ?
Result: False

Query: Dear colleague, could you share the recorded outcome for CCNC1C2(CCCCC2)NC(=O)C12CCCCC2 (centres undefined) when you have a moment?
Result: False

Query: # fetch the recorded call for Cc1csc(=S)n1OC(=O)NC1CCCCC1 here
Result: False

Query: Tell me the assay call for COc1cc(/C=C\c2ccccn2)cc(OC)c1OC please.
Result: False

---

# GI50 per record follows
System: A498
experimentNotes: NCI tumour cell line growth inhibition, 48 h
Active and inactive are the calls of the source. No stated cut-off is given here; in the data, active = GI50 up to about 1.1 µM and inactive = higher.

Memo: C=CCn1c(N)c(C#N)c(C#N)c1CCC , reported GI50: > 100 µM (inactive)

Reported GI50 for CCCCC(NC(=O)CC)C(=O)O (stereo unspecified) was > 100 µM (inactive)

For record O=C(O)c1cc(C(=O)C(=O)c2cc(C(=O)O)c(O)c3ccccc23)c2ccccc2c1O the listed GI50 is > 100 µM (inactive)

Just so you know, measured GI50 for Cc1cccc(Cl)c1NC(=O)c1cccc([N+](=O)[O-])c1O came out at 33 µM (inactive)

Reported GI50 of CCC12C=CCN3CCC4(c5cc(C6(C(=O)OC)CCCCCc7c6[nH]c6ccccc76)c(OC)cc5N(C)C4C(O)(C(=O)OC)C1OC(C)=O)C32 (stereo unspecified) : 2.4 µM (inactive)

Documented GI50 of Oc1cc(C2OCCCO2)cc(O)c1O : > 100 µM (inactive)

Notebook: COc1ccc(CCNCCCC2c3ccccc3-c3ccccc32)cc1OC , GI50 read as 8.02 µM (inactive)

GET /value?item= C=C=C(C)C(=O)N(C(C)C)C(C)C &field=GI50 returns > 100 µM (inactive)

What the record says about CC1(C)SC2C(C(=O)O)N=C(Cc3ccccc3)N2C1C(=O)O (stereo unspecified) : GI50 is 53.7 µM (inactive)

GET /value?item= COC(=O)c1sc(=O)sc1SCc1cccc(CSc2sc(=O)sc2C(=O)OC)c1 &field=GI50 returns 36.1 µM (inactive)

Note to self: GI50 recorded for CCC(C)(O)c1cn(-c2cccc(S(=O)(=O)O)c2)nn1 (stereo unspecified) was > 100 µM (inactive)

---

System: TK-10
experimentNotes: NCI tumour cell line growth inhibition, 48 h
The source made the active and inactive calls. Cut-off read from the data, not from the text of the source: active = GI50 up to about 1.1 µM and inactive = higher.
Valid outcomes are listed here; reply with one: TRUE (active), FALSE (inactive)

Query: For this molecule, state the assay outcome: O=C(NC/C(Cl)=C/Cl)Nc1cccc2c1CCCC2
Result: FALSE

Query: Lab log entry: Cc1ccc(/N=N/c2c(O)c3ccccc3[nH]c2=O)c(S(=O)(=O)N(C)C)c1 — outcome as called in the assay?
Result: FALSE

Query: Check the results log: what was the call for C(#Cc1ccccc1)SC1=C(c2ccccc2)S/C(=C(\SC#Cc2ccccc2)c2ccccc2)S1 ?
Result: FALSE

---

The following compounds are listed with their measured GI50 values.
Tested on: KM12
experimentNotes: NCI tumour cell line growth inhibition, 48 h
Active and inactive are the calls of the source. Cut-off read from the data, not from the text of the source: active = GI50 up to about 1.1 µM and inactive = higher.

Completed entries (count: 3):
- compound: "CC(C)(C)C1(COC(=O)c2ccc(N)cc2)COC1"
  GI50: "58.5 µM (inactive)"
- compound: "OCc1ccc(C2CC(c3ccco3)=NN2c2ccccc2)o1 (stereo unspecified)"
  GI50: "> 100 µM (inactive)"
- compound: "CC(C)(CN1CCCCC1)C(=O)CC(SCCS(=O)(=O)O)c1ccc(Cl)cc1 (stereo unspecified)"
  GI50: "4.31 µM (inactive)"

Now look at this entry.
Field GI50 (entry O=[N+]([O-])c1ccc(SN=S=NSc2cccc(SN=S=NSc3ccc([N+](=O)[O-])cc3)c2)cc1 ) reads 34.2 µM (inactive)

---

Listing: GI50 of selected molecules
Tested on: NCI-H460
experimentNotes: NCI tumour cell line growth inhibition, 48 h
Calls of active or inactive are those of the source. No stated cut-off is given here; in the data, active = GI50 up to about 1.1 µM and inactive = higher.

Worked examples follow.
- molecule: "CC[C@H](C)C1=C(O)[N@+]2([O-])Oc3ccc(-c4c(O)c(O)c(-c5ccc(O)cc5)c(OC(C)=O)c4OC(C)=O)cc3O[C@]2([C@@H](C)CC)C(=O)N1O"
  GI50: "19 µM (inactive)"
- molecule: "NC(=O)NNC(=O)c1nc[nH]c1[N+](=O)[O-]"
  GI50: "> 100 µM (inactive)"
- molecule: "COc1ccc(CCNCCCC2c3ccccc3-c3ccccc32)cc1OC"
  GI50: "7.16 µM (inactive)"
- molecule: "CCOC(=O)NN(C(=O)OCC)C(C(=O)c1ccc(Cl)cc1)=C1NCCN1"
  GI50: "> 100 µM (inactive)"
- molecule: "CC(=O)NC(C)(C)C1CCC(C)CC1 (stereo not drawn)"
  GI50: "> 100 µM (inactive)"

Note to self: GI50 recorded for CC1=C(C#N)C(=O)N(/N=C/c2ccc(Cl)cc2)C(=O)/C1=c1\o/c(=C2/C(=O)N(/N=C/c3ccc(Cl)cc3)C(=O)C(C#N)=C2C)c2nccnc12 was > 100 µM (inactive)

Note to self: GI50 recorded for CN1C(=O)N/C(=C\c2ccc(S(=O)(=O)N/N=C/c3ccccc3)cc2)C1=O was 10.5 µM (inactive)

Consider O=c1[nH]c(=O)n([C@@H]2O[C@H](CO)[C@@H](O)[C@H]2O)cc1F . Its measured GI50 is 0.0159 µM (active)

---

System: RXF 631
experimentNotes: NCI tumour cell line growth inhibition, 48 h
Activity calls are given as the source filed them. Cut-off read from the data, not from the text of the source: active = GI50 up to about 1.1 µM and inactive = higher.
Just give me one of these, please: active, inactive

Worked cases, answers included:
- compound: "COc1ccc(NC(=O)CCc2cc(C(C)(C)C)[nH]n2)cc1"
  labelValue: "inactive"
- compound: "CCOC(=O)NC(=O)c1cn(C2OC(COC(=O)CCCCCCCCC(=O)OCC3OC(n4cc(C(=O)NC(=O)OCC)c(=O)[nH]c4=O)C4OC(C)(C)OC34)C3OC(C)(C)OC32)c(=O)[nH]c1=O (centres undefined)"
  labelValue: "inactive"
- compound: "C[Si](C)(C)C(CCCCSc1ccccc1)(Sc1ccccc1)Sc1ccccc1"
  labelValue: "inactive"
- compound: "Cn1nc(-c2ccccc2)c(C(=O)/C=C/c2ccccc2)c(N2CCCCC2)c1=O"
  labelValue: "inactive"
- compound: "CCCCCCCCCCCCC(CCCCCCCCCCCC)OP(=O)(O)O"
  labelValue: "inactive"
- compound: "Cc1cccc(Cl)c1NC(=O)c1cccc([N+](=O)[O-])c1O"
  labelValue: "inactive"

Query: Test call, this compound: COc1ccc2c(c1)c1c3n2CCNN=C3CCC1
Result: inactive

Query: Recorded call for Cn1c2c([N+](=O)[O-])cccc2c(=O)c2c(O)cc3c(c21)C=CC(C)(C)O3 ?
Result: inactive

Query: Any idea what this test logged for COc1c2c(c(O)c3c4c(c(C)cc13)C1OC3(C(OC)OC5CC(C)(O)C(OC6CC(C)(O)C(O)C(C)O6)C(C)O5)OC1C(OC)(O4)C31CO1)C(=O)C(O)CC2OC1CC(C)(O)C(OC(C)=O)C(C)O1 (centres undefined) ?
Result: active
